# System: OVCAR-3 (Ovarian Carcinoma)
# test-description: Bliss excess, mean over the matrix (fraction); higher = more synergy;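 also: after 72 h of two-drug dosing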
measure: Bliss excess

[
  {
    "molecule": "Cc1c2c(nn1C)CSCc1cc(n(C)n1)CSc1cc(c3ccccc3c1)OCCCc1c(C(=O)O)n(C)c3c-2c(Cl)ccc13 [AZD5991] + C[C@@H]1COCCN1C2=NC(=NC(=C2)C3(CC3)[S@](=N)(=O)C)C4=C5C=CNC5=NC=C4 [AZD6738] (first compound max 1 µM, 7x7, partner max 10 µM)",
    "observed": 0.0623
  },
  {
    "molecule": "CN(CCO)CC[C@H](CSc1ccccc1)Nc1ccc(S(=O)(=O)NC(=O)c2ccc(N3CCC([C@@H](O)c4ccccc4-c4ccc(Cl)cc4)CC3)cc2)cc1S(=O)(=O)C(F)(F)F [AZD4320] + C1CN(CCC1(C(=O)N[C@@H](CCO)C2=CC=C(C=C2)Cl)N)C3=NC=NC4=C3C=CN4 [Capivasertib] (first compound max 1 µM, 7x7, partner max 3 µM)",
    "observed": -0.0393
  },
  {
    "molecule": "Cc1c2c(nn1C)CSCc1cc(n(C)n1)CSc1cc(c3ccccc3c1)OCCCc1c(C(=O)O)n(C)c3c-2c(Cl)ccc13 [AZD5991] + C1CN(CCC1(C(=O)N[C@@H](CCO)C2=CC=C(C=C2)Cl)N)C3=NC=NC4=C3C=CN4 [Capivasertib] (first compound max 1 µM, 7x7, partner max 3 µM)",
    "observed": 0.0217
  },
  {
    "molecule": "COc1cccc2c1C(=O)c1c(O)c3c(c(O)c1C2=O)C[C@@](O)(C(=O)CO)C[C@@H]3O[C@H]1C[C@H](N)[C@H](O)[C@H](C)O1 [Doxorubicin] + Cc1cc2ncnn2cc1Nc1ncc2c(n1)n(C1CCOCC1)c(=O)n2C [AZD7648] (first compound max 1 µM, 7x7, partner max 10 µM)",
    "observed": 0.0489
  },
  {
    "molecule": "CN(C)CCCOc1ccc(-c2ccc3ncc4c(c3c2)n(C2CCOCC2)c(=O)n4C)cn1 [AZD0156] + O=C(c1cc(Cc2n[nH]c(=O)c3ccccc23)ccc1F)N1CCN(C(=O)C2CC2)CC1 [Olaparib] (first compound max 3 µM, partner max 3 µM)",
    "observed": -0.0371
  },
  {
    "molecule": "COc1cccc(OCCCN)c1-c1cc(Nc2cnc(C#N)cn2)n[nH]1 [Prexasertib] + C[C@@H]1COCCN1C2=NC(=NC(=C2)C3(CC3)[S@](=N)(=O)C)C4=C5C=CNC5=NC=C4 [AZD6738] (first compound max 1 µM, 7x7, partner max 10 µM)",
    "observed": 0.032
  },
  {
    "molecule": "CC1(C)CCC(CN2CCN(c3ccc(C(=O)NS(=O)(=O)c4ccc(NCC5CCOCC5)c([N+](=O)[O-])c4)c(Oc4cnc5[nH]ccc5c4)c3)CC2)=C(c2ccc(Cl)cc2)C1 [Venetoclax] + C[C@@H](Nc1cc(F)cc(F)c1)c1cc(C(=O)N(C)C)cc2c(=O)cc(N3CCOCC3)oc12 [AZD8186] (first compound max 1 µM, 7x7, partner max 3 µM)",
    "observed": -0.0062
  }
]

---

# System: P30-OHK (B-Lymphoblastic Leukemia)
# test-description: Bliss excess, mean over the matrix (fraction); higher = more synergy
measure: Bliss excess

[
  {
    "compound": "COc1cccc(OCCCN)c1-c1cc(Nc2cnc(C#N)cn2)n[nH]1 [Prexasertib] + CN(C)CCCOc1ccc(-c2ccc3ncc4c(c3c2)n(C2CCOCC2)c(=O)n4C)cn1 [AZD0156] (first compound max 1 µM, 7x7, partner max 1 µM)",
    "measure": "Bliss excess",
    "observed": -0.045
  },
  {
    "compound": "C=CCn1c(=O)c2cnc(Nc3ccc(N4CCN(C)CC4)cc3)nc2n1-c1cccc(C(C)(C)O)n1 [AZD1775] + O=C(c1cc(Cc2n[nH]c(=O)c3ccccc23)ccc1F)N1CCN(C(=O)C2CC2)CC1 [Olaparib] (first compound max 1 µM, partner max 10 µM)",
    "measure": "Bliss excess",
    "observed": -0.0021
  }
]

Reference source for all entries: the supplement of paper PMC11061612
